Experiment: change in splice reporter luminescence, either direction, cell-based, HEK293, spliceosome inhibition project, primary screen (AID 1101);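 note: HEK293 cells carrying a splicing-competent luciferase reporter gene; test concentration not given here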
Conditions: HEK293 splicing luciferase reporter, 24 h, higher = more signal, called active from +8 up or from −8 down
measured metric: z-score

[[record]]
compound = "CO[C@H]1O[C@H](CO)[C@@H](OC(=O)Nc2ccc3c(c2)OCO3)[C@H](OC(=O)Nc2ccc3c(c2)OCO3)[C@H]1OC(=O)Nc1ccc2c(c1)OCO2"
value_reported = -0.295

[[record]]
compound = "COCCOC(=O)N1C(=O)[C@@]2(c3cc(C#CCC(C(=O)OC)C(=O)OC)ccc31)[C@H](c1ccccc1OCCO)N1[C@H](c3ccccc3)[C@H](c3ccccc3)OC(=O)[C@H]1[C@@H]2C(=O)Nc1nc2ccccc2s1"
value_reported = -1.04

[[record]]
compound = "C=CCOC(=O)[C@@H]1[C@H]2C(=O)O[C@H](c3ccccc3)[C@H](c3ccccc3)N2[C@H](c2ccc(OCCOC(=O)[C@H]3C[C@H]4C(=O)N[C@@H](Cc5ccccc5)C(=O)N4[C@H]3c3ccc(O)cc3)cc2)[C@@]12C(=O)Nc1ccc(I)cc12"
value_reported = 0.00712

[[record]]
compound = "C=CCC(OC(C)=O)[C@@H]1[C@@H](N(Cc2ccc(-c3cccc(C(F)(F)F)c3)o2)C(=O)c2ccc(C)cc2)c2cc(OCCCO)ccc2N1C(=O)c1ccc2ccccc2n1 (stereo partly specified)"
value_reported = 0.168

[[record]]
compound = "Cc1ccc(S[C@]2(C(=O)NCc3ccccc3)CC(=O)N(Cc3cc(C(F)(F)F)cc(C(F)(F)F)c3)[C@@H]2c2ccc(CO)cc2)cc1"
value_reported = 0.0364

[[record]]
compound = "CCCCCCCCCCC(O)C1C=CC2C(=O)N(c3ccccc3)C(=O)C2N1Nc1ccc([N+](=O)[O-])cc1 (stereo unspecified)"
value_reported = 0.823


###

Experiment: change in splice reporter luminescence, either direction, cell-based, HEK293, spliceosome inhibition project, primary screen (AID 1101);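 note: HEK293 cells carrying a splicing-competent luciferase reporter gene; test concentration not given here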
Conditions: HEK293 splicing luciferase reporter, 24 h, higher = more signal, called active from +8 up or from −8 down
Activity calls are given as the source filed them.
measured metric: z-score

[[record]]
molecule = "NC(=O)[C@@]1(CCS(=O)(=O)c2ccccc2)N=C(c2ccc(OCCCO)cc2)O[C@H]1c1ccccc1"
value_reported = "-0.675 (inactive)"

[[record]]
molecule = "C=C[C@H](C)[C@H](OC(=O)Nc1ccc(OC)cc1)c1ccc(O)c2ccccc12"
value_reported = "-0.632 (inactive)"

[[record]]
molecule = "[N-]=[N+]=Nc1ccccc1[C@@H]1OC(c2ccc(OCCCO)cc2)=N[C@]1(CCS(=O)(=O)c1ccccc1)C(=O)N1CCCCC1"
value_reported = "-0.261 (inactive)"

[[record]]
molecule = "COC(=O)c1c2oc(c1C(=O)OC)C(=O)N[C@H](Cc1ccccc1)Cn1nncc1C1(CCCCC1)NC(=O)N[C@H](CO)CC2"
value_reported = "-1.46 (inactive)"

[[record]]
molecule = "O=C1OCCC/C=C\\[C@H]2OC34C=CCN(Cn5nnc6ccccc65)C(=O)[C@H]3N(CCCO)C(=O)[C@@H]4C12 (stereo partly drawn)"
value_reported = "0.288 (inactive)"

[[record]]
molecule = "[N-]=[N+]=NCc1ccccc1C[C@@]1(C(=O)NCc2ccccc2)N=C(c2ccc(OCCCO)cc2)O[C@@H]1c1ccccc1CN=[N+]=[N-]"
value_reported = "0.48 (inactive)"

[[record]]
molecule = "O=C1OCCC/C=C\\[C@H]2OC34C=CCN(CCN5CCOCC5)C(=O)[C@H]3N(CCO)C(=O)[C@@H]4C12 (stereo partly drawn)"
value_reported = "-1.15 (inactive)"

[[record]]
molecule = "CN(C)CCCCCCNC(=O)[C@@H]1C[C@@H]2C(=O)NCC(=O)N2[C@@H]1c1cccc(OCCO)c1"
value_reported = "0.0236 (inactive)"


###

Assay: ATP-based viability of Huh7 replicon cells – cell-based, CellTiter-Glo luminescence, basal, 48 h, cytotoxicity control for HCV replication inhibitor project, primary screen (AID 1143);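 note: Huh7 hepatoma cells carrying a hepatitis C replication reporter with no stimulus; test concentration not given here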
Conditions: higher = more signal, called active from +8 up or from −8 down
measured metric: z-score

[[record]]
compound = "CCCNC(=O)[C@@]1(C)c2ccccc2C(=O)N(Cc2cc(C(F)(F)F)cc(C(F)(F)F)c2)[C@H]1c1ccc(CO)cc1"
value_reported = -5.52

[[record]]
compound = "Cc1ccc(S[C@]2(C(=O)NCCCN(C)C)CC(=O)N(Cc3ccccc3)[C@@H]2c2ccc(CO)cc2)cc1"
value_reported = -0.533

[[record]]
compound = "O=P(NCC1(CC2(c3ccccc3)CO2)CC1)(c1ccccc1)c1ccccc1 (stereo not given)"
value_reported = -0.814

[[record]]
compound = "CN1C(=O)C2C=CC(C(O)c3ccccc3)N(NC(=O)OC(C)(C)C)C2C1=O (stereo not given)"
value_reported = 0.413

[[record]]
compound = "COc1ccc(C#Cc2ccc3c(c2)[C@]2(C(=O)N3)[C@H](C(=O)N3CCN(c4ncccn4)CC3)[C@H]3C(=O)O[C@H](c4ccccc4)[C@H](c4ccccc4)N3[C@@H]2c2ccc(O)cc2)cc1"
value_reported = -0.629

[[record]]
compound = "COc1ccc([Si](C)(C)[C@H]2[C@H](CC(=O)N3CCC[C@H]3CO)O[C@@]3(C(=O)N(c4ccccc4)c4ccccc43)[C@@H]2C)cc1"
value_reported = -3.6

[[record]]
compound = "CN(C)CCCC[C@@H]1NC(=O)[C@H]2C[C@@H](C(=O)NCCCCCNC(=O)CS)[C@@H](c3ccc(O)cc3)N2C1=O"
value_reported = -0.0046

[[record]]
compound = "CCCC[C@H]1OB(O)C[C@H]2C1=C(C)Cn1c(=O)n(-c3ccccc3)c(=O)n12"
value_reported = 0.007

[[record]]
compound = "[N-]=[N+]=NCc1ccccc1[C@H]1OC(c2ccc(OCCCO)cc2)=N[C@@]1(Cc1ccccc1)C(=O)O"
value_reported = -1.01

[[record]]
compound = "COc1ccc([Si](C)(C)[C@@H]2[C@@H](CCO)O[C@]3(C(=O)N(Cc4cccc(N(C=O)c5ccccc5)c4)c4ccccc43)[C@H]2C)cc1"
value_reported = -7.17

[[record]]
compound = "CCN(CC)c1ccc(N2CC=CC34O[C@@H]5C=CCCOC(=O)C5[C@H]3C(=O)N(CCCO)[C@@H]4C2=O)cc1 (stereo not given in full)"
value_reported = -2.8

[[record]]
compound = "C=CCC(OC(C)=O)[C@@H]1[C@@H](N(Cc2cc3ccccc3o2)C(=O)c2ccc(-c3ccccc3)cc2)c2cc(OCCCO)ccc2N1C(=O)Cc1ccc2ccccc2c1 (stereo not given in full)"
value_reported = 0.0758

[[record]]
compound = "CCOC(=O)C=Cc1cccc(OC)c1O"
value_reported = -4.11

[[record]]
compound = "CN1C(=O)C2C=CC(C(O)c3ccc(Br)cc3)N(Nc3ccccc3)C2C1=O (stereo not given)"
value_reported = 1.06

[[record]]
compound = "CN1C(=O)C2C(C1=O)C1C=C(c3ccc(CO)cc3)C2C(C2CC2)N1Cc1sc2ccccc2c1Cl (stereo not given)"
value_reported = -3.96

[[record]]
compound = "COc1ccc([Si](C)(C)[C@@H]2[C@@H](CCO)O[C@]3(C(=O)N(Cc4ccccc4)c4ccc(N(C=O)c5ccccc5)cc43)[C@H]2C)cc1"
value_reported = -5.23

[[record]]
compound = "O=C1O[C@@H](c2ccccc2)[C@@H](c2ccccc2)N2[C@@H](c3ccc(O)cc3)[C@]3(C(=O)Nc4ccccc43)[C@@H](C(=O)N3CCCCCCC3)[C@H]12"
value_reported = -2.61

[[record]]
compound = "CN(C)CCCCNC(=O)[C@@H]1C[C@@H]2C(=O)N[C@@H](CCCCN)C(=O)N2[C@@H]1c1cccc(OCCO)c1"
value_reported = 0.0925

[[record]]
compound = "COCCOC(=O)N1C(=O)[C@@]2(c3cc(C#Cc4ccc(OC)cc4)ccc31)[C@H](c1ccc(OCCO)cc1)N1[C@H](c3ccccc3)[C@H](c3ccccc3)OC(=O)[C@H]1[C@@H]2C(=O)N1CCc2cc(OC)c(OC)cc2C1"
value_reported = -2.85

[[record]]
compound = "C=C(CCCC)C(=O)CC[C@H](OC(C)=O)c1ccc(CO)o1"
value_reported = -3.11

[[record]]
compound = "C=CCC(OC(C)=O)[C@@H]1[C@@H](N(Cc2cc3ccccc3o2)C(=O)c2cccc3ccccc23)c2cc(OCCCO)ccc2N1C(=O)Cc1ccc2ccccc2c1 (stereo not given in full)"
value_reported = -1.62

[[record]]
compound = "O=c1cccc(-c2cccc3ccccc23)o1"
value_reported = -0.779

[[record]]
compound = "COCCn1c(C(=O)N(C)C)cc2c1C[C@H]1CN(C(=O)c3ccccc3)[C@@](Cc3ccc(F)cc3)(C(=O)OC)[C@@H]21"
value_reported = -0.394

[[record]]
compound = "O=C1O[C@@H](c2ccccc2)[C@@H](c2ccccc2)N2[C@@H](c3ccc(O)cc3)[C@]3(C(=O)Nc4ccc(C#CCCO)cc43)[C@@H](C(=O)O)[C@H]12"
value_reported = 0.457

[[record]]
compound = "Cc1ccc([C@H]2C(C(=O)O)=C[C@@H](C(C)C)N2S(=O)(=O)c2ccc(C)cc2)cc1"
value_reported = 0.0491

[[record]]
compound = "C=CCC(OC(C)=O)[C@@H]1[C@@H](N(Cc2ccc(-c3ccccc3)cc2)C(=O)c2ccc(C)cc2)c2cc(OCCCO)ccc2N1C(=O)c1ccc2ccccc2n1 (stereo not given in full)"
value_reported = -1.16

[[record]]
compound = "O=C(NCC(F)(F)F)[C@@H]1c2ccccc2C(=O)N(Cc2ccccc2)[C@H]1c1ccc(CO)cc1"
value_reported = -0.223

[[record]]
compound = "O=C(NCC(O)CO)[C@]1(CCS(=O)(=O)c2ccccc2)N=C(c2ccc(OCCCO)cc2)O[C@@H]1c1ccccc1 (stereo not given in full)"
value_reported = -0.084

[[record]]
compound = "C/C=C/[C@H](CCn1cc([C@H](O)c2ccccc2)nn1)[Si](C)(C)c1ccc(OC)cc1"
value_reported = -1

[[record]]
compound = "COCCCNC(=O)[C@@]1(C)c2ccccc2C(=O)N(Cc2ccccc2)[C@H]1c1ccc(CO)cc1"
value_reported = -4.52

